Test system: Echinochloa crus-galli (ECHCG)
Assay: Pre-emergence biological efficacy, glasshouse pot test
Type: in vivo
Conditions: 312 h, pre-emergence, rate 1,000 g/ha, evaluated after 13 days (100=total damage to plant; 0=no damage), read-out: Percentage damage caused to weed species, ECHCG
Flag rule - pest or weed control at 1000 g/ha less than 20% flags satisfied; the remaining entries get not satisfied.

Worked cases, answers included:
> print(dat)
                                   molecule     labelclass
1  COC(=O)c1nc(-c2ccc(Cl)cc2C(F)(F)F)nc(NCc2ccco2)c1Cl      satisfied
2  COC(=O)c1nc(-c2ccc(OC)cc2C)nc(NCc2ccco2)c1Cl      satisfied
3  COc1c(Cl)ccc(-c2nc(NCC3CC3)c(Cl)c(C(=O)O)n2)c1F  not satisfied
4  COC(=O)c1nc(-c2ccc(Cl)cc2C)nc(NCc2ccco2)c1Cl      satisfied
5  COC(=O)c1nc(-c2ccc(F)c(Cl)c2)nc(NCc2ccco2)c1Cl  not satisfied

Given `COC(=O)c1nc(C2CC2)nc(N(C)Cc2ccc(C)o2)c1Cl` , is recorded pest or weed control at 1000 g/ha strictly lower than 20%?
satisfied

Given COC(=O)c1nc(C2CC2)nc(N(C)C(C)C(O)c2ccccc2)c1Cl (centres unmarked) , is recorded pest or weed control at 1000 g/ha strictly lower than 20%?
satisfied

###

Form field: pest or weed control at 1000 g/ha (one value per entry).
Tested on: Setaria faberi (SETFA)
Experiment: Post-emergence biological efficacy, glasshouse pot test
Type: in vivo
Settings: 312 h, Rate 1,000 g/ha, post-emergence spray, evaluated after 13 days (100=total damage to plant; 0=no damage to plant), read-out: Percentage damage caused to weed species, post-emergence, SETFA
Description: Seeds of Alopecurus myosuroides (ALOMY), Setaria faberi (SETFA), Echinochloa crus-galli (ECHCG), Solanum nigrum (SOLNI), Amaranthus retoflexus (AMARE) and Ipomea hederaceae (IPOHE) were sown in standard soil in pots. […] The test plants were then grown on under controlled conditions in a glasshouse (at 24/16° C., day/night; 14 hours light; 65% humidity) and watered twice daily. After 13 days the test was evaluated (100=total damage to plant; 0=no damage to plant).
Reply numerically in %, unit not repeated.

> print(dat)
                                   compound                     reportedmetric  readoutunits  resultvalue
1  C=CCN(Cc1cccc(OC)c1OC)c1nc(C2CC2)nc(C(=O)OC)c1Cl [Compound 151-109]  pest or weed control at 1000 g/ha             %            0

For the compound CCOC(=O)c1nc(C2CC2)nc(NCc2ccccc2)c1Cl [Compound 7-60] , report pest or weed control at 1000 g/ha.
90

For the compound COC(=O)c1nc(-c2cc(F)c(Cl)c(F)c2)nc(NCc2ccco2)c1Cl [Compound 232-48] , report pest or weed control at 1000 g/ha.
0

For the compound COC(=O)c1nc(-c2ccc(Cl)c(C#N)c2)nc(NCc2ccco2)c1Cl [Compound 221-48] , report pest or weed control at 1000 g/ha.
30

For the compound COC(=O)c1nc(C2CC2)nc(N(C)CCc2ccccn2)c1Cl [Compound 5-228] , report pest or weed control at 1000 g/ha.
40

For the compound C=Cc1c(NCc2ccco2)nc(-c2ccc(Cl)c(OC)c2F)nc1C(=O)OC [Compound 139-125] , report pest or weed control at 1000 g/ha.
90

For the compound COC(=O)c1nc(-c2ccc(Cl)c(N(C)C)c2F)nc(NCc2ccco2)c1Cl [Compound 261-48] , report pest or weed control at 1000 g/ha.
90

For the compound CCN(Cc1cccs1)c1nc(C2CC2)nc(C(=O)OC)c1Cl [Compound 6-140] , report pest or weed control at 1000 g/ha.
70

For the compound COC(=O)c1nc(-c2ccc(Cl)c(Cl)c2F)nc(NCc2ccco2)c1Cl [Compound 226-48] , report pest or weed control at 1000 g/ha.
80

For the compound COC(=O)c1nc(C2CC2)nc(N(CCO)Cc2ccc(Cl)nc2)c1Cl [Compound 157-157] , report pest or weed control at 1000 g/ha.
0

For the compound C=Cc1c(NCc2ccco2)nc(-c2ccc(Cl)cc2)nc1C(=O)OC [Compound 67-125] , report pest or weed control at 1000 g/ha.
0

For the compound COC(=O)c1nc(C2CC2)nc(N(C)Cc2ccncc2)c1Cl [Compound 5-160] , report pest or weed control at 1000 g/ha.
60

For the compound COC(=O)c1nc(-c2ccc(Cl)cc2)nc(NCc2ccccc2)c1Cl [Compound 40-60] , report pest or weed control at 1000 g/ha.
0

For the compound O=C(O)c1nc(-c2ccc(Cl)cc2)nc(NCc2ccco2)c1Cl [Compound 37-125] , report pest or weed control at 1000 g/ha.
100

For the compound COC(=O)c1nc(Cl)nc(NCC2CC2)c1Cl [Compound 207-31] , report pest or weed control at 1000 g/ha.
40

For the compound COC(=O)c1nc(C2CC2)nc(N(C)Cc2ccc(Br)cc2)c1Cl [Compound 5-69] , report pest or weed control at 1000 g/ha.
70

For the compound O=C(OCc1ccccc1)c1nc(C2CC2)nc(NCc2ccco2)c1Cl [Compound 200-125] , report pest or weed control at 1000 g/ha.
80

For the compound COC(=O)c1nc(C2CC2)nc(N(C)Cc2nonc2C)c1Cl [Compound 5-149] , report pest or weed control at 1000 g/ha.
80

###

Test system: Setaria faberi (SETFA)
Test: Pre-emergence biological efficacy, glasshouse pot test
Assay type: in vivo
Conditions: 312 h, pre-emergence, rate 1,000 g/ha, evaluated after 13 days (100=total damage to plant; 0=no damage), read-out: Percentage damage caused to weed species, SETFA
Form field: pest or weed control at 1000 g/ha (one value per entry).
Reply numerically in %, unit not repeated.

These recorded examples may help you get a feel for the data.
> print(dat)
                                   compound  resultvalue
1  O=C(OCc1ccccc1)c1nc(C2CC2)nc(NCc2ccco2)c1Cl [Compound 200-125]           70
2  COC(=O)c1nc(C2CC2)nc(N(Cc2ccccc2)Cc2ccccc2)c1Cl [Compound 155-60]            0
3  COC(=O)c1nc(-c2cccc(OC)c2F)nc(NCc2ccco2)c1Cl [Compound 249-48]           20
4  CCCN(Cc1ccc(C)cc1)c1nc(C2CC2)nc(C(=O)OC)c1Cl [Compound 145-73]           20
5  COC(=O)c1nc(C2CC2)nc(N(C)Cc2ccncc2)c1Cl [Compound 5-160]            0

For the compound COC(=O)c1nc(C2CC2)nc(N(C)Cc2ccc([N+](=O)[O-])cc2)c1Cl [Compound 5-92] , report pest or weed control at 1000 g/ha.
10

For the compound COC(=O)c1nc(C2CC2)nc(N(C)Cc2ccc(Br)cc2)c1Cl [Compound 5-69] , report pest or weed control at 1000 g/ha.
0

For the compound COC(=O)c1nc(-c2ccc(C)c([N+](=O)[O-])c2)nc(NCc2ccco2)c1Cl [Compound 256-48] , report pest or weed control at 1000 g/ha.
0

###

Tested on: Alopecurus myosuroides (ALOMY)
Experiment: Post-emergence biological efficacy, glasshouse pot test
Assay type: in vivo
Conditions: 312 h, Rate 1,000 g/ha, post-emergence spray, evaluated after 13 days (100=total damage to plant; 0=no damage to plant), read-out: Percentage damage caused to weed species, post-emergence, ALOMY
Form field: pest or weed control at 1000 g/ha (one value per entry).
Reply numerically in %, unit not repeated.

These recorded examples may help you get a feel for the data.
> print(dat)
                                   molecule                   assayedtarget  readoutunits  resultvalue
1  COC(=O)c1nc(-c2ccc(F)cc2)nc(NCc2ccco2)c1Cl  Alopecurus myosuroides (ALOMY)             %           20
2  COC(=O)c1nc(-c2ccc(C(F)(F)F)cc2)nc(NCc2ccco2)c1Cl  Alopecurus myosuroides (ALOMY)             %           20
3  O=C(NCc1ccco1)c1nc(C2CC2)nc(NCc2ccco2)c1Cl  Alopecurus myosuroides (ALOMY)             %           20
4  CCN(Cc1ccccc1F)c1nc(C2CC2)nc(C(=O)OC)c1Cl  Alopecurus myosuroides (ALOMY)             %           30
5   COC(=O)c1nc(C2CC2)nc(N(C)Cc2ccncc2)c1Cl  Alopecurus myosuroides (ALOMY)             %           20

For the molecule `CCOC(=O)c1nc(C2CC2)nc(NCc2ccco2)c1Cl` , report pest or weed control at 1000 g/ha.
90

For the molecule `CCCN(Cc1ccccc1)c1nc(C2CC2)nc(C(=O)OC)c1Cl` , report pest or weed control at 1000 g/ha.
20

For the molecule `COC(=O)c1nc(Cl)nc(NCc2ccco2)c1Cl` , report pest or weed control at 1000 g/ha.
10

For the molecule `O=C(NCc1cccs1)c1nc(C2CC2)nc(NCc2cccs2)c1Cl` , report pest or weed control at 1000 g/ha.
20

For the molecule `CCN(Cc1ccccc1)c1nc(C2CC2)nc(C(=O)OC)c1Cl` , report pest or weed control at 1000 g/ha.
30

For the molecule `COC(=O)c1nc(-c2ccc(Cl)c(OC)c2)nc(NCc2ccco2)c1Cl` , report pest or weed control at 1000 g/ha.
10

For the molecule `O=C(O)c1nc(-c2ccc(Cl)cc2)nc(NCc2ccco2)c1Cl` , report pest or weed control at 1000 g/ha.
70

For the molecule `CCN(Cc1cccs1)c1nc(C2CC2)nc(C(=O)OC)c1Cl` , report pest or weed control at 1000 g/ha.
40

For the molecule COC(=O)c1nc(C2CC2)nc(N(C)[C@@H](Cc2ccccc2)C(=O)OC)c1Cl [5-283 (S)] , report pest or weed control at 1000 g/ha.
10

For the molecule `COC(=O)c1nc(C2CC2)nc(N(CCC#N)Cc2ccco2)c1Cl` , report pest or weed control at 1000 g/ha.
0

For the molecule `CCN(Cc1ccc(Br)s1)c1nc(C2CC2)nc(C(=O)OC)c1Cl` , report pest or weed control at 1000 g/ha.
30

For the molecule `COC(=O)c1nc(Cl)nc(NCc2ccccc2)c1Cl` , report pest or weed control at 1000 g/ha.
30
